As shown below, each of these compounds has a reported IC50 value.
Tested On: Gonadotropin-releasing hormone receptor (Homo sapiens, UniProt P30968)
Procedure Details: Binding affinity towards human gonadotropin releasing hormone receptor expressed in CHO cells was determined by using [125I]-buserelin as radioligand
Format: cell-based
Give just the number in nM; leave the unit off.

# Compound, Unit Annotation, IC50
data = [
    ("Cc1cc(-c2c(OCC[C@@H]3CCN3)c3cc(C(=O)Nc4cnsn4)c(Cl)cc3[nH]c2=O)cc(C)c1C", "nM", 0.32),
]

Query (compound): Cc1cc(-c2c(O)nc3cc(Cl)c(C(=O)Nc4cnsn4)cc3c2OCC[C@H]2CCC(=O)N2)cc(C)c1C ; field requested: IC50
0.3

Could you tell me which IC50 is on file for Cc1cc(-c2c(O)nc3cc(Cl)c(C(=O)Nc4cnsn4)cc3c2OCCC2CCCC2)cc(C)c1C ?
243

Bench note: what IC50 did Cc1cc(-c2c(OCCC3CC4CCN3CC4)c3cc(C(=O)Nc4cnsn4)c(Cl)cc3[nH]c2=O)cc(C)c1C (centres undefined) show?
0.6

====

Tested On: Gonadotropin-releasing hormone receptor (Homo sapiens)
Sequence (P30968 whole entry): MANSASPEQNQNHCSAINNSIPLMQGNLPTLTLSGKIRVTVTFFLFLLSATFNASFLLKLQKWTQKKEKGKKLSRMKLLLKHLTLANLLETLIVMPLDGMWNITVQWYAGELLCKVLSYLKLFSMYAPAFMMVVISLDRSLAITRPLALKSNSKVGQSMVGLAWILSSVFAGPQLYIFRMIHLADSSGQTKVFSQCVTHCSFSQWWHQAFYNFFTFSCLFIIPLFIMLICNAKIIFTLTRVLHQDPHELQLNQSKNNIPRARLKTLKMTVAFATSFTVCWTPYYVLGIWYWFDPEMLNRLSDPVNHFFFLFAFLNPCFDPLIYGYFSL
Procedure Details: Binding affinity towards human gonadotropin releasing hormone receptor expressed in CHO cells was determined by using [125I]-buserelin as radioligand
Assay type: cell-based
Measured Metric: pIC50
pIC50 here is simply -log10 of the concentration when that concentration is written in mol/L.

# Compound, pIC50
rows = [
    ("Cc1cc(-c2c(OCCC3CCCO3)c3cc(C(=O)Nc4ccncn4)c(Cl)cc3[nH]c2=O)cc(C)c1C (stereo not given)", 9.22),
    ("Cc1cc(-c2c(O)nc3cc(Cl)c(C(=O)Nc4ccncn4)cc3c2OCC[C@@H]2CCCN2)cc(C)c1C", 9.10),
    ("Cc1cc(-c2c(O)nc3cc(Cl)c(C(=O)Nc4ccncn4)cc3c2OCC[C@@H]2CCC[C@H](C(F)(F)F)N2C)cc(C)c1C", 8.70),
    ("Cc1cc(-c2c(O)nc3cc(Cl)c(C(=O)Nc4ccncn4)cc3c2OCC[C@@H]2CCC[C@H](C(F)(F)F)N2)cc(C)c1C", 8.70),
    ("Cc1cc(-c2c(O)nc3cc(Cl)c(C(=O)Nc4cnsn4)cc3c2OCC[C@H]2CCC(=O)N2C)cc(C)c1C", 8.85),
]

// returns reported pIC50 for input Cc1cc(-c2c(OCC[C@@H]3CCCCN3)c3cc(C(=O)Nc4cnsn4)c(Cl)cc3[nH]c2=O)cc(C)c1C
9.26

====

Listing of recorded pIC50 by entry.
Tested On: Gonadotropin-releasing hormone receptor (Homo sapiens)
Procedure Details: Inhibition of GnRH-stimulated phosphatidyl inositol hydrolysis in CHO cells expressing GnRH receptor
Type: functional, cell-based
// pIC50 here means minus log10 of the molar concentration (mol/L)

Consider the worked cases shown below.
# Compound, Tested On, pIC50
records = [
    ("Cc1cc(-c2c(OCCC3CCCO3)c3cc(C(=O)Nc4ccncn4)c(Cl)cc3[nH]c2=O)cc(C)c1C (centres undefined)", "Gonadotropin-releasing hormone receptor (Homo sapiens)", 8.48),
    ("Cc1cc(-c2c(O)nc3cc(Cl)c(C(=O)Nc4ccncn4)cc3c2OCC[C@@H]2CCC[C@H](C(F)(F)F)N2C)cc(C)c1C", "Gonadotropin-releasing hormone receptor (Homo sapiens)", 7.74),
    ("Cc1cc(-c2c(O)nc3cc(Cl)c(C(=O)Nc4ccncn4)cc3c2OCC[C@@H]2CCCN2)cc(C)c1C", "Gonadotropin-releasing hormone receptor (Homo sapiens)", 8.66),
]

Which pIC50 value belongs to Cc1cc(-c2c(O)nc3cc(Cl)c(C(=O)Nc4cnsn4)cc3c2OCC[C@H]2CCC(=O)N2)cc(C)c1C ?
9.15

====

Consider the following compounds and their measured pIC50 readings.
Tested On: Gonadotropin-releasing hormone receptor (Homo sapiens, UniProt P30968)
Procedure Details: Inhibition of GnRH-stimulated phosphatidyl inositol hydrolysis in CHO cells expressing GnRH receptor
Format: functional, cell-based
Scale note: pIC50 = -log10(concentration in M).

Worked examples follow.
# Compound, pIC50
data = [
    ("Cc1cc(-c2c(OCC[C@H]3CC(=O)N3)c3cc(C(=O)Nc4cnsn4)c(Cl)cc3[nH]c2=O)cc(C)c1C", 8.89),
    ("Cc1cc(-c2c(OCCC3COCCN3)c3cc(C(=O)Nc4cnsn4)c(Cl)cc3[nH]c2=O)cc(C)c1C (stereo not drawn)", 7.49),
    ("Cc1cc(-c2c(OCC[C@@H]3CCCCN3)c3cc(C(=O)Nc4ccncn4)c(Cl)cc3[nH]c2=O)cc(C)c1C", 8.66),
    ("Cc1cc(-c2c(O)nc3cc(Cl)c(C(=O)Nc4cnsn4)cc3c2OCC[C@H]2CCC(=O)N2C)cc(C)c1C", 7.96),
    ("Cc1cc(-c2c(O)nc3cc(Cl)c(C(=O)Nc4cnsn4)cc3c2OCCC2OCCO2)cc(C)c1C", 7.17),
    ("Cc1cc(-c2c(OCC[C@@H]3CCN3)c3cc(C(=O)Nc4ccncn4)c(Cl)cc3[nH]c2=O)cc(C)c1C", 9.05),
]

Please provide the recorded pIC50 for Cc1cc(-c2c(O)nc3cc(Cl)c(C(=O)Nc4cnsn4)cc3c2OCC[C@H]2CCO2)cc(C)c1C , tested on Gonadotropin-releasing hormone receptor (Homo sapiens, UniProt P30968).
7.31

Form field: pIC50 recorded for Cc1cc(-c2c(O)nc3cc(Cl)c(C(=O)Nc4ccncn4)cc3c2OCC[C@@H]2CCC[C@H](C(F)(F)F)N2)cc(C)c1C with Gonadotropin-releasing hormone receptor (Homo sapiens, UniProt P30968) (enter value)
7.74

====

Below, each of the compounds is paired with its reported pIC50 value.
Tested On: Gonadotropin-releasing hormone receptor (Homo sapiens, UniProt P30968)
Sequence (P30968 whole entry): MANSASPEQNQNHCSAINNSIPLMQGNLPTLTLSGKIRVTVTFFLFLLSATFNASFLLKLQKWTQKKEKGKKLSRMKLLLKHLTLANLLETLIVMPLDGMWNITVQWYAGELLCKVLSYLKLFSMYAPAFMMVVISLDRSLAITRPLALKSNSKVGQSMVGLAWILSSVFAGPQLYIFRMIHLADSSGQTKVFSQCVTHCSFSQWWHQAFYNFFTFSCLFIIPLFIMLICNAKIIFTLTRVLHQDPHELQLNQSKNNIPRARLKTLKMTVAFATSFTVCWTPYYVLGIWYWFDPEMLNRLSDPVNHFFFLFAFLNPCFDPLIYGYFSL
Procedure Details: Inhibition of GnRH-stimulated phosphatidyl inositol hydrolysis in CHO cells expressing GnRH receptor
Assay type: functional, cell-based
pIC50 field: float, defined as -log10 of concentration (mol/L).

# Compound, Observed
data = [
    ("Cc1cc(-c2c(OCCC3CC4CCN3CC4)c3cc(C(=O)Nc4cnsn4)c(Cl)cc3[nH]c2=O)cc(C)c1C (centres undefined)", 8.24),
]

Need pIC50, item Cc1cc(-c2c(O)nc3cc(Cl)c(C(=O)Nc4cnsn4)cc3c2OCCC2CCCC2)cc(C)c1C
5.94

For Cc1cc(-c2c(OCC[C@@H]3CCCCN3)c3cc(C(=O)Nc4cnsn4)c(Cl)cc3[nH]c2=O)cc(C)c1C , what is its reported pIC50?
8.80

Reported pIC50 for Cc1cc(-c2c(OCC[C@@H]3CCN3)c3cc(C(=O)Nc4cnsn4)c(Cl)cc3[nH]c2=O)cc(C)c1C : what is it?
9.10

====

Measured pIC50, listed per entry for reference.
Tested On: Gonadotropin-releasing hormone receptor (Homo sapiens)
Procedure Details: Binding affinity towards human gonadotropin releasing hormone receptor expressed in CHO cells was determined by using [125I]-buserelin as radioligand
Format: cell-based
Hey, just a heads up that pIC50 is the negative log base 10 of the concentration in molar.

# example entries with known answers
# Compound, Tested On, pIC50
measured = [
    ("Cc1cc(-c2c(OCCC3COCCN3)c3cc(C(=O)Nc4cnsn4)c(Cl)cc3[nH]c2=O)cc(C)c1C (centres undefined)", "Gonadotropin-releasing hormone receptor (Homo sapiens)", 9.15),
    ("Cc1cc(-c2c(OCC[C@H]3CC(=O)N3)c3cc(C(=O)Nc4cnsn4)c(Cl)cc3[nH]c2=O)cc(C)c1C", "Gonadotropin-releasing hormone receptor (Homo sapiens)", 10.00),
    ("Cc1cc(-c2c(O)nc3cc(Cl)c(C(=O)Nc4cnsn4)cc3c2OCC[C@H]2CCO2)cc(C)c1C", "Gonadotropin-releasing hormone receptor (Homo sapiens)", 9.05),
]

Note: attention shifts to another entry.
For the compound shown here, Cc1cc(-c2c(O)nc3cc(Cl)c(C(=O)Nc4cnsn4)cc3c2OCCC2OCCO2)cc(C)c1C , give the reported pIC50.
9.22
